Mean fluorescence intensity values for the binders below.
Biological target: T1, human LAG-3 on cells (HEK293-hLAG-3 stable cell line) (human, UniProt P18627 23-525)
T1 sequence: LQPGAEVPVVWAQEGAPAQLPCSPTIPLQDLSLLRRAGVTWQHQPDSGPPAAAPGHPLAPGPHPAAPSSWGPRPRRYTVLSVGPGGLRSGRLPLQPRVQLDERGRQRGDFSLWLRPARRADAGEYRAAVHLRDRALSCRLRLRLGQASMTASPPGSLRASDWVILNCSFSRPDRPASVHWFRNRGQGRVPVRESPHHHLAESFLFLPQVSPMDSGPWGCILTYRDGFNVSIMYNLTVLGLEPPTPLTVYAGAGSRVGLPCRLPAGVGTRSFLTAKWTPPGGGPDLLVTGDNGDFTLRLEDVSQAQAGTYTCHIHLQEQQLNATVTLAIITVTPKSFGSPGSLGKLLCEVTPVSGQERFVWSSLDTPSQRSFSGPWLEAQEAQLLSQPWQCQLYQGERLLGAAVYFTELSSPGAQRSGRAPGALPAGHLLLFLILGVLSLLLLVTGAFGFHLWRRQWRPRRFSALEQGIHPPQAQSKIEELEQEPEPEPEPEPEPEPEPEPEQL
Assay: FACS, HEK293-hLAG-3, antibody 0.320 nM
Lab note: record just the number, no unit beside it.

Value of measured Mean fluorescence intensity for the entry 405B8H3 mouse-human chimeric antibody (antibody, V domains shown, also called mAb103-405B8H3) VH: QVQLQQSGAELVRPGASVTLSCKASGYTFTDYEMHWVKQTPVHGLEWIGATDPETGNSAYNQKFKGKAIMTADKSSSTAYMELRSLTSEDSAVYYCISTGWNDWGQGTSLTVSS VL: DIKMTQSPSSMYASLGERVTITCKASQDINSYLSWFQQKPGKSPKTLIYRADRLLDGVPSRFSGSGSGQDYSLTISSLEYGDMGIYYCLQYDEFPYTFGGGTKLEIK : 17.3

Entry 409B11E12 mouse-human chimeric antibody (antibody, V domains shown, also called mAb104-409B11E12) VH: QVQLQQSGAELVRPGASVTLSCKASGYTFTDYEMHWVKQTTVHGLEWIGATDPETSYSAYNQKFKGKAILTADKSSSTAYMELRSLTSEDSAVYYCIATGWNDWGQGTSLTVSS VL: DLKMTQSPSSMYASLGERVTITCKASQDINSYLSWFQQKPGKSPKTLIYRANRLLDGVPSRFSGSGSGQDYSLTISSLEYEDMGIYYCLQYDEFPYTFGGGTKLEIK ; Mean fluorescence intensity = 16.8

Input 409D4E10 mouse-human chimeric antibody (antibody, V domains shown, also called mAb112-409D4E10) VH: QVQLQQSGAELVRPGASVTLSCKASGNTFTDYEMHWVKQTPVHGLEWIGATDPETDNTAYNQKFKGKAILTTDKSSSTAYMELRSLTSEDSAVYYCITSGWNDWGQGTSLTVSS VL: DIKMTQSPSSMYASLGERVTITCKASQDINSYLSWFQQKPGKSPKTLIYRANRLLDGVPSRFSGSGSGQDYSLTISSLEYEDMGIYYCLQYNEFPYTFGGGTKLEIK . Output Mean fluorescence intensity: 15.7

Looking up 556F6B8 mouse-human chimeric antibody (antibody, V domains shown, also called mAb123-556F6B8; 556F8B8) VH: RVQLKQSGPGLVQPSQSLSITCTVSGFSLIKYGVHWVRQSPGEGLEWLGVIWRGGITDYNAAFMSRLSITKDNSKSQVFFKMNSLQADDTAIYYCAKWDGPLAMDYWGQGTSVTVSS VL: DIVMTQSHKFLSTSVGDRVSITCKASQDVGTTVAWYQQKPGQSPKLLIYWASTRHTGVPDRFTGSGSGTDFTLTISNVQSEDLADYFCQQYSSYPYTFGGGTKLEIK , I found its Mean fluorescence intensity recorded as 14.3

Now turn to the next binder.
// Mean fluorescence intensity lookup, binder = 105F1E10 mouse-human chimeric antibody (antibody, V domains shown, also called mAb009-105F1E10) VH: EVQLQQSGPELVKPGASVKMSCRASGYTFTDFKMHWMKQSHGKSLEWIGYIAPNNGGTAYNQKFRGKATLTVNESSNTAYMELRSLTSEDSAVYYCVDWDDVDYWGQGTTLTVSS VL: DIKMTQSPSSMYASLGERVTITCKASQDINSYLSWFQQKSGKSPKTLIYRANRLVDGVPSRFSGSGSGQDYSLTISSLEYEDMGIYYCLQYVEFPLTFGAGTKLELK , result: 10.7

Source listed as patent US20210155689A1.
